Species: Cavia porcellus
Test: Selectivity for delta opioid receptor over mu opioid receptor in Hartley guinea pig brain membrane
Type: cell membranes
// values below are reported Selectivity ratio
experimental_readout: Selectivity ratio

• COc1ccc2c3c1O[C@H]1c4c(c5cccc6c5n4CCCC6)C[C@@]4(O)[C@@H](C2)N(CC2CC2)CC[C@]314 = > 13
• CCn1c2c(c3cccc(C)c31)C[C@@]1(O)[C@H]3Cc4ccc(OC)c5c4[C@@]1(CCN3CC1CC1)[C@H]2O5 = > 17
• COc1ccc2c3c1O[C@H]1c4c(c5cccc6c5n4CCC6)C[C@@]4(O)[C@@H](C2)N(CC2CC2)CC[C@]314.CS(=O)(=O)O = > 46

###

Molecular target: Mu-type opioid receptor (Homo sapiens)
Experiment: Agonist activity at human mu opioid receptor expressed in CHO cells assessed as stimulation of [35S]GTPgammaS binding at 1 uM relative to DAMGO
Type: functional, cell-based
experimental_readout: Activity (%)

- Oc1ccc2c3c1O[C@H]1c4c(c5cccc6c5n4CCC6)C[C@@]4(O)[C@@H](C2)N(CC2CC2)CC[C@]314: 1
- Oc1ccc2c3c1O[C@H]1c4[nH]c5c6c(ccc5c4C[C@@]4(O)[C@@H](C2)N(CC2CC2)CC[C@]314)CCCC6: -1
- Oc1ccc2c3c1O[C@H]1c4c(c5cccc6c5n4CC6)C[C@@]4(O)[C@@H](C2)N(CC2CC2)CC[C@]314: 0
- COc1ccc2c3c1O[C@H]1c4c(c5cccc6c5n4CCC6)C[C@@]4(O)[C@@H](C2)N(CC2CC2)CC[C@]314.CS(=O)(=O)O: -1
- COc1ccc2c3c1O[C@H]1c4c(c5cccc6c5n4CCCC6)C[C@@]4(O)[C@@H](C2)N(CC2CC2)CC[C@]314: -1
